The measurements presented in this section are drawn from patent US20260109732A1.

- Protocol Summary: Diameter and PDI from DLS measurements of mRNA nanoparticles with lipid amines
- Assay type: physicochemical
- Condition Context: CFTR mRNA nanoparticle with lipid amine
Counter-ions that a name gives are not always drawn.
We begin with a simple list: items and their reported Diameter (nm).
Note: unit nm is implicit; provide only the numeric part.

If you can, please state the reported Diameter (nm) value of CC(C)CCC[C@@H](C)[C@H]1CC[C@H]2[C@@H]3CC=C4C[C@@H](OC(=O)N(CCCCNCC(F)CN)CC(F)CN)CC[C@]4(C)[C@H]3CC[C@]12C (some centres unmarked) [SA87, trihydrochloride] .
81.2

New cases:
Value lookup for Diameter (nm); key = CC[C@H](CC[C@@H](C)[C@H]1CC[C@H]2[C@@H]3CC=C4C[C@@H](OC(=O)CCC(=O)N(CCCCCCCC(C)(C)N)CCC(C)(C)N)CC[C@]4(C)[C@H]3CC[C@]12C)C(C)C [SA165, dihydrochloride]
69.8

Tell me the measured Diameter (nm) of CC(C)CCC[C@@H](C)[C@H]1CC[C@H]2[C@@H]3CC=C4C[C@@H](OC(=O)N(CCCCNCCC(C)(C)N)CCC(C)(C)N)CC[C@]4(C)[C@H]3CC[C@]12C [SA78, trihydrochloride] , please.
87.7

Param item = CC(C)CCC[C@@H](C)[C@H]1CC[C@H]2[C@@H]3CC=C4C[C@@H](OC(=O)CN(CCCN)CCCCNCCCN)CC[C@]4(C)[C@H]3CC[C@]12C (stereo in doubt) ; retrieve measured Diameter (nm).
78.0

Form field: reported Diameter (nm) of CC[C@H](CC[C@@H](C)[C@H]1CC[C@H]2[C@@H]3CC=C4C[C@@H](OC(=O)N(CCCN)CCCCCCN)CC[C@]4(C)[C@H]3CC[C@]12C)C(C)C [SA84, dihydrochloride]
82

Please look up its Diameter (nm): CC(C)CCC[C@@H](C)[C@H]1CC[C@H]2[C@@H]3CC=C4C[C@@H](SSCCC(=O)N(CCCN)CCCCCCCCN)CC[C@]4(C)[C@H]3CC[C@]12C [SA97, dihydrochloride]
83.2

// lookup Diameter (nm) for CC(C)CCC[C@@H](C)[C@H]1CC[C@H]2[C@@H]3CC=C4C[C@@H](SSCCC(=O)N(CCCC(C)(C)N)CCC(C)(C)N)CC[C@]4(C)[C@H]3CC[C@]12C [SA145, dihydrochloride]
71.8
